# test: activity coefficient (dimensionless); of the first substance listed, at infinite dilution; xn = mol fraction of the nth substance listed
# condition-notes: 323.15 K; 101 kPa; Liquid; Chromatography; x1 = 0

{"molecule": "ClC(Cl)Cl [trichloromethane] + C[n+]1ccn(CCCB(O)O)c1.[Br-]", "activity coefficient": 3.01}
{"molecule": "ClCCl [dichloromethane] + C=CC[n+]1ccn(CCCCCCCCCC)c1.[Br-]", "activity coefficient": 0.27}
{"molecule": "C=CCCCC [hex-1-ene] + CCCCCCCC[n+]1ccn(CCCB(O)O)c1.[Br-]", "activity coefficient": 8.32}
{"molecule": "CCCCCCCC [octane] + C=CC[n+]1ccn(CCCCCCCCCC)c1.[Br-]", "activity coefficient": 14.3}
{"molecule": "C=CCCCC [hex-1-ene] + CCCCCCCCCC[n+]1ccn(CCCB(O)O)c1.[Br-]", "activity coefficient": 3.76}
{"molecule": "c1ccccc1 [benzene] + C=CC[n+]1ccn(CCCCCCCCCCCC)c1.[Br-]", "activity coefficient": 1.08}
{"molecule": "CCCCCC [hexane] + C=CCn1cc[n+](C)c1.[Br-]", "activity coefficient": 25.1}
{"molecule": "CCC(C)=O [butanone] + C[n+]1ccn(CCCB(O)O)c1.[Br-]", "activity coefficient": 21.8}
{"molecule": "ClCCl [dichloromethane] + CCCCCCCCCC[n+]1ccn(CCCB(O)O)c1.[Br-]", "activity coefficient": 0.25}
{"molecule": "CC(C)CO [2-methyl-1-propanol] + C=CC[n+]1ccn(CCCCCCCCCCCC)c1.[Br-]", "activity coefficient": 0.23}
{"molecule": "Cc1cccc(C)c1 [1,3-dimethylbenzene] + C=CC[n+]1ccn(CCCCCCCC)c1.[Br-]", "activity coefficient": 2.73}
{"molecule": "CCCCCC [hexane] + CCCCCCCC[n+]1ccn(CCCB(O)O)c1.[Br-]", "activity coefficient": 18.2}
{"molecule": "C#CCCCC [1-hexyne] + C=CC[n+]1ccn(CCCCCCCCCC)c1.[Br-]", "activity coefficient": 2.02}
{"molecule": "C1CCCCC1 [cyclohexane] + C=CC[n+]1ccn(CCCCCCCCCC)c1.[Br-]", "activity coefficient": 5.64}
{"molecule": "ClC(Cl)(Cl)Cl [tetrachloromethane] + C=CCn1cc[n+](C)c1.[Br-]", "activity coefficient": 1.54}
{"molecule": "CCCCCCCC [octane] + CCCCCCCCCCCC[n+]1ccn(CCCB(O)O)c1.[Br-]", "activity coefficient": 6.34}
{"molecule": "CC#N [acetonitrile] + CCCCCCCCCC[n+]1ccn(CCCB(O)O)c1.[Br-]", "activity coefficient": 0.95}
{"molecule": "C#CCCCC [1-hexyne] + C=CC[n+]1ccn(CCCCCCCC)c1.[Br-]", "activity coefficient": 2.04}
{"molecule": "CC(C)CO [2-methyl-1-propanol] + C=CCn1cc[n+](C)c1.[Br-]", "activity coefficient": 0.33}
